Entries with their measured MIC, system Klebsiella oxytoca 1082E:
readoutLabel: MIC (ng/mL)

CON=C1CN(c2nc3c(cc2F)c(=O)c(C(=O)O)cn3-c2ccc(F)cc2F)CC12CNC2.CS(=O)(=O)O [Example 7]	13
CON=C1CN(c2nc3c(cc2F)c(=O)c(C(=O)O)cn3C2CC2)CC12CN(C)C2 [Example 10]	7
CON=C1CN(c2c(F)cc3c(=O)c(C(=O)O)cn(C4CC4)c3c2Cl)CC12CNC2 [Example 4]	4
CON=C1CN(c2c(F)cc3c(=O)c(C(=O)O)cn(C4CC4)c3c2F)CC12CNC2 [Example 3]	7
CON=C1CN(c2cc3c(cc2F)c(=O)c(C(=O)O)cn3-c2ccc(F)cc2F)CC12CNC2.CS(=O)(=O)O.CS(=O)(=O)O [Example 6]	13
CON=C1CN(c2nc3c(cc2F)c(=O)c(C(=O)O)cn3C2CC2)CC12CNC2.CS(=O)(=O)O [Example 1]	4

---

Listed below: MIC values for each entry.
Test system: Pseudomonas aeruginosa 1592E
Assay: In vitro antibacterial activity (MIC), agar dilution
Assay type: cell-based
Conditions: 2-fold agar dilution, Muller-Hinton agar, 18 hours at 37° C., read-out: minimum inhibitory concentration (MIC)
readoutLabel: MIC (µg/mL)

O=C(O)c1cn(C2CC2)c2cc(N3CCNCC3)c(F)cc2c1=O [Ciprofloxacin, ciprofloxacin, reference compound]	0.195
CCON=C1CN(c2nc3c(cc2F)c(=O)c(C(=O)O)cn3C2CC2)CC12CNC2.CS(=O)(=O)O	0.781
CON=C1CN(c2c(F)c(N)c3c(=O)c(C(=O)O)cn(C4CC4)c3c2F)CC12CN(C)C2	0.781
CON=C1CN(c2cc3c(cc2F)c(=O)c(C(=O)O)cn3C2CC2)CC12CNC2.CS(=O)(=O)O	0.391
CON=C1CN(c2nc3c(cc2F)c(=O)c(C(=O)O)cn3-c2ccc(F)cc2F)CC12CNC2.CS(=O)(=O)O	1.56
CON=C1CN(c2nc3c(cc2F)c(=O)c(C(=O)O)cn3C2CC2)CC12CN(C)C2	0.781
CON=C1CN(c2c(F)cc3c(=O)c(C(=O)O)cn(C4CC4)c3c2Cl)CC12CNC2	0.781
CON=C1CN(c2c(F)cc3c(=O)c(C(=O)O)cn(C4CC4)c3c2F)CC12CNC2	0.781

---

Test system: Staphylococcus aureus 694E
Test: In vitro antibacterial activity against resistant strains (MIC)
Assay type: cell-based
Settings: resistant strain Staphylococcus aureus 694E; 2-fold agar dilution; methicillin resistant strains 48 hours at 30° C.; read-out: minimum inhibitory concentration (MIC)
Protocol: 10^7 cfu/ml of bacteria were inoculated and cultured for 18 hours at 37° C. and then the antibacterial activities were measured. For the methicillin resistant strains the activities were measured after 48 hours of cultivation at 30° C. Hoechst Standard strains were used for the testings.
Listed below: MIC values for each entry.
readoutLabel: MIC (µg/mL)

C[C@@H]1CN(c2c(F)c(N)c3c(=O)c(C(=O)O)cn(C4CC4)c3c2F)C[C@H](C)N1 [Sparfloxacin, sparfloxacin, reference compound]	0.098
CON=C1CN(c2nc3c(cc2F)c(=O)c(C(=O)O)cn3C2CC2)CC12CNC2.CS(=O)(=O)O	0.049
CON=C1CN(c2c(F)c(N)c3c(=O)c(C(=O)O)cn(C4CC4)c3c2F)CC12CN(C)C2	0.013
CCON=C1CN(c2c(F)c(N)c3c(=O)c(C(=O)O)cn(C4CC4)c3c2F)CC12CNC2.CS(=O)(=O)O	0.013
O=C(O)c1cn(C2CC2)c2cc(N3CCNCC3)c(F)cc2c1=O [Ciprofloxacin, ciprofloxacin, reference compound]	0.391
